# TEST PROTOCOL: Photostability Example: aqueous photolysis under xenon arc lamp simulating natural sunlight for 24 hours, percent remaining relative to dark controls
# Assay type: physicochemical
# TEST CONDITIONS: 0.670 μg/mL in 80/20 10 mM pH 7 phosphate buffer/acetonitrile, xenon arc lamp 24 hours
Measured % Cmpd Remaining of individual entries

The examples below pair each entry with its known result.
- COMPOUND: "COC(=O)NCc1cc(-c2ccn(-c3ccc(OC)cc3OC)n2)ccc1C"
  % Cmpd Remaining: "78%"
- COMPOUND: "COC(=O)NCc1cc(-n2ccc(-c3ccc(OC)cc3OC)n2)ccc1Cl [23P]"
  % Cmpd Remaining: "0%"
- COMPOUND: "COC(=O)NCc1cc(-n2ccc(-c3ccc(OC)cc3C)n2)ccc1Cl [10P]"
  % Cmpd Remaining: "0%"
- COMPOUND: "COC(=O)NCc1cc(-n2ncc(-c3ccc(OC)cc3OC)n2)ccc1Cl [17P]"
  % Cmpd Remaining: "0%"
- COMPOUND: "COC(=O)NCc1cc(-c2ccn(-c3ccc(OC)cc3OC)n2)ccc1Cl [24P]"
  % Cmpd Remaining: "0%"

Lab book: % Cmpd Remaining of "COC(=O)NCc1cc(-n2ccc(-c3ccc(OC)cc3C)n2)ccc1C" noted as 97%

// COC(=O)NCc1cc(-c2ccn(-c3ccc(OC)cc3C)n2)ccc1Cl [18P] : % Cmpd Remaining value = 0%

* * *

Form field: pest or weed control at 40 ppm (one value per entry).
# System: Botrytis cinerea
# TEST PROTOCOL: Test E: tomato botrytis, preventive spray on tomato seedlings, visual disease rating
# Assay type: in vivo
# TEST CONDITIONS: Botrytis cinerea, 120 h, 40 ppm (*), 100 = 100% disease control
Kindly provide the numeric value in % only, without the unit symbol.

- MOLECULE: "COC(=O)NCc1cc(-c2ncn(-c3ccc(OC)cc3F)n2)ccc1C [Compound 79]"
  EXPERIMENTAL ENDPOINT: "pest or weed control at 40 ppm"
  EXPERIMENTAL RESULT: 76

Lab note: measured pest or weed control at 40 ppm of COC(=O)NCc1cc(-c2ncn(-c3ccc(OC)cc3C)n2)ccc1C [Compound 70] was 84

The measured pest or weed control at 40 ppm associated with COC(=O)NCc1cc(-n2ccc(-c3ccc(C)cc3C)n2)ccc1C [Compound 38] reads 98

Value of pest or weed control at 40 ppm reported for the molecule COC(=O)NCc1cc(-n2ncc(-c3ccc(OC)cc3I)[n+]2[O-])ccc1C [Compound 94] is 11

// recorded pest or weed control at 40 ppm for COC(=O)NCc1cc(-c2ncn(-c3ccc(OC)cc3Cl)n2)ccc1C [Compound 78] : 68

pest or weed control at 40 ppm reported for this molecule COC(=O)NCc1cc(-c2ncn(-c3ccc(OC)cc3OC)n2)ccc1C [Compound 54] : 49

* * *

# System: Erysiphe graminis f. sp. tritici
# TEST PROTOCOL: Test A: wheat powdery mildew, preventive spray on wheat seedlings, visual disease rating
# Format: in vivo
# TEST CONDITIONS: Blumeria graminis, 192 h, 200 ppm, 100 = 100% disease control
Reported pest or weed control at 200 ppm values are given for each entry in this list.

- CHEM SMILES: "COC(=O)NCc1cc(-n2ccc(-c3ccc(Cl)cc3Cl)n2)ccc1C"
  EXPERIMENTAL RESULT: "100%"

The observed pest or weed control at 200 ppm for "COC(=O)NCc1cc(-n2ncc(-c3ccc(I)cc3OC)[n+]2[O-])ccc1C" when tested with Erysiphe graminis f. sp. tritici stands at 99%

Entry "COC(=O)NCc1cc(-c2ncn(-c3ccc(F)cc3F)n2)ccc1C" , Erysiphe graminis f. sp. tritici data, pest or weed control at 200 ppm value: 100%

Note to self: pest or weed control at 200 ppm of "COC(=O)NCc1cc(-c2ccn(-c3ccc(OC)cc3Cl)n2)ccc1C" with Erysiphe graminis f. sp. tritici was 100%

pest or weed control at 200 ppm on Erysiphe graminis f. sp. tritici for "COC(=O)NCc1cc(-n2ncc(-c3ccc(OC)cc3OC)[n+]2[O-])ccc1C" is 99%

Form field, pest or weed control at 200 ppm with Erysiphe graminis f. sp. tritici, item "COC(=O)NCc1cc(-c2ncn(-c3ccc(Cl)cc3Cl)n2)ccc1C" : 99%

Bench note, Erysiphe graminis f. sp. tritici: "COC(=O)NCc1cc(-n2ccc(-c3ccc(OC)cc3C)n2)ccc1C" , pest or weed control at 200 ppm reads 100%

Param item: "COC(=O)NCc1cc(-n2ncc(-c3ccc(OC)cc3OC)n2)ccc1C" ; param system: Erysiphe graminis f. sp. tritici; output pest or weed control at 200 ppm: 100%

Form field pest or weed control at 200 ppm for item "COC(=O)NCc1cc(-c2ncn(-c3ccc(C)cc3C)n2)ccc1C" on Erysiphe graminis f. sp. tritici: 99%

* * *

# Test system: Erysiphe graminis f. sp. tritici
# TEST PROTOCOL: Test A: wheat powdery mildew, preventive spray on wheat seedlings, visual disease rating
# Assay type: in vivo
# TEST CONDITIONS: 40 ppm (*), 100 = 100% disease control
Marks after values point to notes of the source that are not given here.
EXPERIMENTAL ENDPOINT: Test A disease control rating

- CHEM SMILES: "COC(=O)NCc1cc(-n2ccc(-c3ccc(OC)cc3Br)n2)ccc1C"
  EXPERIMENTAL RESULT: "99* %"

Shifting focus to the compound that follows.
Item: "CCc1cc(OC)ccc1-c1ccn(-c2ccc(C)c(CNC(=O)OC)c2)n1" | Test A disease control rating: 99* %

* * *

# Test system: Erysiphe graminis f. sp. tritici
# TEST PROTOCOL: Test A: wheat powdery mildew, preventive spray on wheat seedlings, visual disease rating
# Format: in vivo
# TEST CONDITIONS: 40 ppm (*), 100 = 100% disease control
Marks after values point to notes of the source that are not given here.
EXPERIMENTAL ENDPOINT: Test A disease control rating

Some solved entries appear below for comparison.
- COMPOUND: "COC(=O)NCc1cc(-n2ncc(-c3ccc(OC)cc3Br)n2)ccc1C [Cmpd 143]"
  EXPERIMENTAL RESULT: "99* %"
- COMPOUND: "COC(=O)NCc1cc(-c2ccn(-c3ccc(F)cc3Cl)n2)ccc1C [Cmpd 60]"
  EXPERIMENTAL RESULT: "100* %"
- COMPOUND: "COC(=O)NCc1cc(-c2ccn(-c3ccc(F)cc3F)n2)ccc1C [Cmpd 64]"
  EXPERIMENTAL RESULT: "100* %"

Lookup result for COC(=O)NCc1cc(-n2ccc(-c3ccc(Br)cc3F)n2)ccc1C [Cmpd 56] ; measured Test A disease control rating: 100* %

Memo: COC(=O)NCc1cc(-n2ccc(-c3ccc(Br)cc3OC)n2)ccc1C [Cmpd 58] , reported Test A disease control rating: 100* %

GET /value?item= COC(=O)NCc1cc(-n2ncc(-c3ccc(Cl)cc3F)n2)ccc1C [Cmpd 50] &field=Test A disease control rating returns 100* %

Input COC(=O)NCc1cc(-n2ccc(-c3ccc(Cl)nc3C)n2)ccc1C [Cmpd 44] . Output Test A disease control rating: 98* %

Reported Test A disease control rating of COC(=O)NCc1cc(-n2ccc(-c3ccc(C)cc3Cl)n2)ccc1C [Cmpd 41] : 100* %

# compound C#Cc1cc(OC)ccc1-c1cnn(-c2ccc(C)c(CNC(=O)OC)c2)n1 [Cmpd 47] ; its Test A disease control rating = 99* %

* * *

# System: Puccinia recondita f sp. tritici
# TEST PROTOCOL: Test B: wheat leaf rust, preventive spray on wheat seedlings, visual disease rating
# Format: in vivo
# TEST CONDITIONS: 192 h, 200 ppm, 100 = 100% disease control
# From the text: General protocol for preparing test suspensions for Tests A-E: the test compounds were first dissolved in acetone in an amount equal to 11% of the final volume and then suspended at the desired concentration (in ppm) in acetone and purified water (50/50 mix by volume) containing 250 ppm of the surfactant Trem® 014 (polyhydric alcohol esters). […]
EXPERIMENTAL ENDPOINT: pest or weed control at 200 ppm (%)
API: value field is a number in %; no unit string.

Study these solved cases before continuing.
- CHEM SMILES: "COC(=O)NCc1cc(-n2ccc(-c3ccc(OC)cc3C)n2)ccc1C"
  UNIT SYMBOL: "%"
  pest or weed control at 200 ppm: 100
- CHEM SMILES: "COC(=O)NCc1cc(-n2ccc(-c3ccc(Cl)cc3Cl)n2)ccc1C"
  UNIT SYMBOL: "%"
  pest or weed control at 200 ppm: 100
- CHEM SMILES: "COC(=O)NCc1cc(-n2ncc(-c3ccc(OC)cc3OC)n2)ccc1C"
  UNIT SYMBOL: "%"
  pest or weed control at 200 ppm: 100
- CHEM SMILES: "COC(=O)NCc1cc(-n2ncc(-c3ccc(I)cc3OC)[n+]2[O-])ccc1C"
  UNIT SYMBOL: "%"
  pest or weed control at 200 ppm: 100
- CHEM SMILES: "COC(=O)NCc1cc(-c2ncn(-c3ccc(C)cc3C)n2)ccc1C"
  UNIT SYMBOL: "%"
  pest or weed control at 200 ppm: 100

"COC(=O)NCc1cc(-c2ccn(-c3ccc(OC)cc3Cl)n2)ccc1C" yielded pest or weed control at 200 ppm of 100

pest or weed control at 200 ppm for "COC(=O)NCc1cc(-n2ccc(-c3ccc(Cl)cc3OC)n2)ccc1C" is 100

Note to self: pest or weed control at 200 ppm recorded for "COC(=O)NCc1cc(-n2ncc(-c3ccc(OC)cc3OC)[n+]2[O-])ccc1C" was 100

Record "COC(=O)NCc1cc(-c2ccn(-c3ccc(OC)cc3C)n2)ccc1C" , field pest or weed control at 200 ppm: 100

Measured pest or weed control at 200 ppm of "COC(=O)NCc1cc(-n2ncc(-c3ccc(OC)cc3C)n2)ccc1C" : 100

// sample "COC(=O)NCc1cc(-c2ncn(-c3ccc(Cl)cc3Cl)n2)ccc1C" , its pest or weed control at 200 ppm was 100
